Attribute: Enzyme Activity Endpoint Assay (purified): IgG
Target: pooled human IgG
measure: Enzyme Activity Endpoint Assay (purified): IgG

| protein | reported_value |
| --- | --- |
| PRT-136 (protein) MRNATEAYAKEVPHQITSVWTKGVTPLTPEQFRYNNEDVIHAPYLAHQGWYDITKAFDGKDNLLCGAATAGNMLHWWFDQNKTEIEAYLSKHPEKQKIIFNNQELFDLKAAIDTKDSQTNSQLFNYFRDKAFPNLSARQLGVMPDLVLDMFINGYYLNVFKTQSTDVNRPYQDKDKRGGIFDAVFTRGDQTTLLTARHDLKNKGLNDISTIIKQELTEGRALALSHTYANVSISHVINLWGADFNAEGNLEAIYVTDSDANASIGMKKYFVGVNAHGHVAISAKKIEGENIGAQVLGLFTLSSGKDIWQKLS | 0 ng/µL |
| PRT-565 (protein) MANQEIRYSEATPSHITSVWTKGVTPPTQFIQNEDVLHAPYIANQGWYDITKTFNGKDDLLCGAATAGNMLHWWFDQNKEQIENYLKKHPEKQKINFNGEQMFDVKEAIDTKDSQTDSALFSYFKDKAFPYLSTKHLGVFPDHVIDMFINGYRLSLTNHGPTPVKRQTKDPRGGIFDAVFTRGDQSKLLTSRHDFKEKTLNEISQLIKQELTEGKALGLSHTYANVRINHVINLWGADFNAEGNLEAIYVTDSDSNASIGMKKYYVGVNSAGKVAISAKEIEGDNIGAQVLGLFTLSTGQDIWQQTNLEHHHHHH | 0 ng/µL |
| PRT-671 (protein) MQITTVWTKGVTPPTPEQFRNNNEDVFHAPYLPHQGWYDITKAFDGKDNLLCGAATAGNMLHWWFDQNKEEIEAYLKKYPEKQKIIFNNQELFDLRKAINTKDSQTNSQLFNYFRDKAFPNLSARQLGVMPDHVLDMFINGYYLNVFKTQSTDVNRPYQTRDKRGGIFDAVFNRGDQTTLLTERHDLYNKGLDDISTLIKQELSSGKALGLSHTYANVSISHVINLWGADFNAEGNLEAIYVTDSDDDASIGMKKYYVGKNASGHVRISAKKIEGENIGAQVLGLFTLSTGKDIWQKLSLEHHHHHH | 244 ng/µL |
| PRT-668 (protein) MQITSVWTKGVTPLTPEQFRYNNYDVFHAPYLAGQGWYDITKAFDGKDNLLCGAATAGNMLHWWFDQNKTEIEAYLSKYPEKQKIIFNNQELFDLRKAINTKDSQTNSELFNYFRDKAFPNLSARQLGVMPDLVLDMFINGYYLNVFKTQSTDVNRPYQDKDKRGGIFDAVFNRGDQTKLLTARHDLKNKGLNDISTLIKQELSSGRALALSHTTANVSISHVINLWGADFNAEGNLEAIYVTDSDDDSNIGMKKYKVGINASGHVAISAKKIEGENIGAQVLGLFTLSSGKDIWQKLSLEHHHHHH | 1070 ng/µL |
